System: Mythimna separata
PROCEDURE DETAILS: Insecticidal activity against Mythimna separata at 10 mg/kg
Assay type: functional
Listed compounds paired with reported Activity
Answer in %, number only, no unit symbol.

Study these solved cases before continuing.
>>> value_measured("O=C(NC(=O)c1c(F)cccc1F)Nc1ccc(CO/N=C\\c2ccc3c(c2)OCO3)cc1")
50
>>> value_measured("C/C(=N/OCc1ccc(NC(=O)NC(=O)c2c(F)cccc2F)cc1)c1ccc2c(c1)OCO2")
15
>>> value_measured("C/C(=N/OCc1ccc(NC(=O)NC(=O)c2c(F)cccc2F)cc1)n1cncn1")
0
>>> value_measured("O=C(NC(=O)c1c(F)cccc1F)Nc1ccc(CO/N=C(/c2ccc(Cl)cc2)C2CC2)cc1")
100

Pending compound:
What reported Activity corresponds to CCCS/C(C)=N\OCc1ccc(NC(=O)NC(=O)c2c(F)cccc2F)cc1 on Mythimna separata? 0

The reported numbers originate from ChEMBL document CHEMBL1143046.
